Data origin: patent US20230250158A1

targetDesc: SARS-CoV-2 Spike protein on VSV pseudotyped virus particles (Wuhan-1 isolate Spike sequence) (SARS-CoV-2, UniProt P0DTC2 13-1273)
testSummary: cell-based or functional assay
Recorded Pseudovirus IC50 values for a group of binders are listed next.
outcomeMeasure: Pseudovirus IC50 (µg/mL)

[
  {
    "binder": "21-F2 (antibody, V domains shown) VH: QVQLVQSGAEVKKPGASVTVSCKTSGYIFTNYDINWVRQAPGQGLEWVGWVNPNSGKVGYAQKFQGRVIMTRSDSESTAYMELTNLTSDDTAVYYCARGHTDFWGQGTLVTVSS VL: QSVLTQPPSVSEAPRQRVTISCSGSSSNIGNNAVNWYQQLPGRAPKLLIYYDDLLPSGVSDRFSGSKSGTSASLAISGLQSEDEADYYCAAWDDSLNGVVFGGGTQLTVL",
    "inequalityOperator": "=",
    "observed": 0.84
  },
  {
    "binder": "23-H7 (antibody, V domains shown, also called bin 2) VH: QVQLVQSGAEVKLPGASMKVSCKASGYTFSTYYMHWVRQAPGQGPEWMGVIDPSGGTTSYAQKFHDRIAMTRDTSTSTAYLELSSLRSEDMAVYYCARGGFADAVDYWGQGTLVTVSS VL: NFMLTQPHSVSGSPGKTVTISCTRNSGSIAGNYVQWYQQRPGSAPTTVIYEDNQRPSGVPDRFSGSIDSSSNSASLTISGLKTEDEADYYCQSYDASHLHVIFGGGTKVTVL",
    "inequalityOperator": "=",
    "observed": 0.84
  },
  {
    "binder": "5-B6 (antibody, V domains shown) VH: QVQLVQSGAEVKKPGSSVKVSCKASGGTFSSYAISWVRQAPGQGLEWVGGIIPMFNSASYAQKFQGKVTITADKATNTAYMELSSLRSEDTAVYYCARESSGYYYVSNWFDPWGQGTLVTVSS VL: QSVLTQPSSVSGAPGQRVTISCTGSSSNIGAGYDVHWYQQIPGTAPRLLIYANSGRASGVPDRFSGSKSGTSASLAITGLQAEDEADYYCQSYDSSLSGVVFGGGTKLTVL",
    "inequalityOperator": ">",
    "observed": 42
  }
]
